Tested on: Hs-578T
Assay: NCI tumour cell line growth inhibition, 48 h
Activity calls are given as the source filed them. No stated cut-off is given here; in the data, active = GI50 up to about 1.1 µM and inactive = higher. Where a SMILES comes first, the peptide text is derived from it. The star is where a group is joined. Cbz = O=C(OCc1ccccc1)*
Outcomes: YES for active, NO for inactive

{"compound": "CCOP(=O)(CCC(O)CNc1nc(N)nc(Cl)c1/N=N/c1ccc(Cl)cc1)OCC (configuration not stated)", "target-entity": "Hs-578T", "class-label": "NO"}
{"compound": "CS(=O)(=O)Nc1ccc2c(c1)N(S(C)(=O)=O)CC2COS(C)(=O)=O (configuration not stated)", "target-entity": "Hs-578T", "class-label": "NO"}
{"compound": "CC1=NC(C)(COC(=O)C2(C)NC(C)(CO)CO2)COC1=O (configuration not stated)", "target-entity": "Hs-578T", "class-label": "NO"}
{"compound": "Fc1ccc(/C=C2\\COCC3=C2NC(=S)NC3c2ccc(F)cc2)cc1 (configuration not stated)", "target-entity": "Hs-578T", "class-label": "NO"}
{"compound": "C/C1=C\\CC[C@@]2(C)O[C@@H]2C[C@@H]2[C@H](C/C(C)=C/CC1)OC(=O)[C@]21CO1", "target-entity": "Hs-578T", "class-label": "NO"}
{"compound": "O=C(O)c1ccc(N2C=[N+]3C(=Nc4ccccc43)C2)cc1", "target-entity": "Hs-578T", "class-label": "NO"}
{"compound": "C[C@@H]1C[C@@]2(O[C@@H]2C)C(=O)O[C@@H]2CCN3CC=C(COC(=O)[C@]1(C)O)[C@H]23", "target-entity": "Hs-578T", "class-label": "NO"}
{"compound": "OCC(CCc1c[nH]c2ccccc12)c1c[nH]c2ccccc12 (configuration not stated)", "target-entity": "Hs-578T", "class-label": "NO"}
{"compound": "COC(=O)c1c(C(=O)OC)c(C(c2ccccc2)c2ccccc2)n(-c2ccccc2)c1Cl", "target-entity": "Hs-578T", "class-label": "NO"}
{"compound": "Cn1c(=O)c2c(n(C)c1=O)n1c(=O)c3ccccc3nc1n2C", "target-entity": "Hs-578T", "class-label": "NO"}
{"compound": "COC(=O)c1ccc(Oc2nc3ccc(C(F)(F)F)cc3nc2-c2ccccc2)cc1", "target-entity": "Hs-578T", "class-label": "NO"}
{"compound": "COc1cc2c(cc1OCCCN1CCN(C)CC1)N=C[C@@H]1CCCN1C2=O", "target-entity": "Hs-578T", "class-label": "NO"}
{"compound": "O=c1[nH]c(=O)n(C2CC(O)C(CO)O2)cc1OCCc1ccccc1 (configuration not stated)", "target-entity": "Hs-578T", "class-label": "NO"}
{"compound": "COc1ccc(-c2cc(=O)c3c(O)cc(O)cc3o2)cc1OC", "target-entity": "Hs-578T", "class-label": "NO"}
{"compound": "CCOC(=O)CC(=O)N(c1ccc(OC)cc1)C(C(=O)OC)c1ccccc1 (configuration not stated)", "target-entity": "Hs-578T", "class-label": "NO"}
{"compound": "Cc1ccc(S(=O)(=O)n2cc(C#N)c(C#N)c2)cc1", "target-entity": "Hs-578T", "class-label": "NO"}
{"compound": "O=C(O)c1ccccc1NC(=S)c1ccccc1", "target-entity": "Hs-578T", "class-label": "NO"}
{"compound": "COc1ccc(/C=C(\\Cl)c2ccc(OC)c(OC)c2)cc1OC", "target-entity": "Hs-578T", "class-label": "NO"}
{"compound": "CCOC(=O)CCC(NC(=O)C(Cc1ccccc1)NC(=O)OCc1ccccc1)C(=O)OCC (stereo not drawn) (Cbz-Phe-Glu(OEt)-OEt; configuration not given here)", "target-entity": "Hs-578T", "class-label": "NO"}
{"compound": "O=C(Nc1ccccc1)c1cc2c(cc1Cl)Sc1nccn1S2(=O)=O", "target-entity": "Hs-578T", "class-label": "NO"}
{"compound": "CSc1c(C#N)c(S)[nH]c(=O)c1C#N", "target-entity": "Hs-578T", "class-label": "NO"}
{"compound": "CN(C)CC1CCC/C(=C\\c2ccc(OC(=O)/C=C/c3ccc(Cl)c(Cl)c3)cc2)C1=O (configuration not stated)", "target-entity": "Hs-578T", "class-label": "NO"}
{"compound": "CCN(CC)CCC(=O)c1ccc(Oc2ccc(C)cc2)cc1", "target-entity": "Hs-578T", "class-label": "NO"}
{"compound": "C=CCOC(=O)N1c2ccc(O)cc2[C@@]23O[C@@]24[C@@H]1C#C/C=C\\C#C[C@]3(O)C(=O)C[C@@H]4C", "target-entity": "Hs-578T", "class-label": "NO"}
{"compound": "COc1ccc(C2=NN(C(=N)S)C(c3ccccc3)C2)cc1 (configuration not stated)", "target-entity": "Hs-578T", "class-label": "NO"}
{"compound": "[O-][N+]1=[N+]([O-])[C@@H](c2ccccc2)[C@H]1c1ccccc1", "target-entity": "Hs-578T", "class-label": "NO"}
{"compound": "Cc1c(/N=N/c2ccccc2)c(-c2ccccc2)n(C2OC(CO)C(O)C(O)C2O)c(=S)c1C#N (configuration not stated)", "target-entity": "Hs-578T", "class-label": "NO"}
{"compound": "CC(=O)OC[C@@]12CC[C@H]3C(C)(C)CCC[C@]3(C)[C@H]1C[C@@H](C1=CC(=O)O[C@H]1O)O2", "target-entity": "Hs-578T", "class-label": "NO"}
{"compound": "S=C1N=C(Cl)/C(=C\\c2ccco2)N1", "target-entity": "Hs-578T", "class-label": "NO"}
{"compound": "O=C(O)C1C2CCC(O2)C1C(=O)NCc1cccnc1 (configuration not stated)", "target-entity": "Hs-578T", "class-label": "NO"}
{"compound": "CCOC(=O)c1cnc2oc3ccc(O)cc3c2c1-c1ccccc1", "target-entity": "Hs-578T", "class-label": "NO"}
{"compound": "NC12CC3CC4C1CC1CC2C(C3)C4(N)C1", "target-entity": "Hs-578T", "class-label": "NO"}
{"compound": "CCCC1(N)CC(OC)OC(C)C1O (configuration not stated)", "target-entity": "Hs-578T", "class-label": "NO"}
{"compound": "CCOc1cc(/C=C2\\N=C(c3ccccc3)N(c3nc4ccccc4s3)C2=O)ccc1O", "target-entity": "Hs-578T", "class-label": "NO"}
{"compound": "COC(=O)[C@@H]1CN(C(=O)Cc2ccccc2)C(=O)N1", "target-entity": "Hs-578T", "class-label": "NO"}
{"compound": "OC[C@@H](O)[C@H]1NC[C@@H](O)[C@H]1O", "target-entity": "Hs-578T", "class-label": "NO"}
{"compound": "CCOC(=O)c1nc2cc(C(F)(F)F)ccc2nc1Nc1cc(OC)c(OC)c(OC)c1", "target-entity": "Hs-578T", "class-label": "NO"}
{"compound": "CCOC(=O)C(NC(=O)c1ccccc1)(Nc1ccc(S(=O)(=O)Nc2ccc(OC)nn2)cc1)C(F)(F)F (configuration not stated)", "target-entity": "Hs-578T", "class-label": "NO"}
{"compound": "O=C1Nc2ccccc2/C1=N/NC(=S)Nc1ccc([N+](=O)[O-])cc1", "target-entity": "Hs-578T", "class-label": "NO"}
{"compound": "ClC(Cl)=C1C(=C(Cl)Cl)C(Cl)(Cl)C1(Cl)Cl", "target-entity": "Hs-578T", "class-label": "NO"}
{"compound": "CSc1scc2c1/C(=N/NC(N)=O)CCC2", "target-entity": "Hs-578T", "class-label": "NO"}
{"compound": "COc1ccc(C2C=C(c3ccc4c(c3)OCO4)Oc3c2c(=O)oc2ccccc32)cc1OC (configuration not stated)", "target-entity": "Hs-578T", "class-label": "YES"}
